# Measurement Protocol: Transferability into brain and clearance (radioactive accumulation in brain after intravenous injection)
# Cond: rats, after 60 min.
Metric: Radioactive accumulation per unit weight in brain (% ID/g)
Give the quantity in % ID/g, number only.

Need Radioactive accumulation per unit weight in brain, item COc1ccc(-c2cn3cc([123I])ccc3n2)cc1
0.04

Would you kindly share the measured Radioactive accumulation per unit weight in brain for COc1ccc2nc(-c3ccc([123I])cc3)cn2c1 ?
0.09

Fill blank: measured Radioactive accumulation per unit weight in brain of the compound CN(C)c1ccc(-c2cn3cc([123I])ccc3n2)cc1 [[^123I]-IMPY, reference compound] is ____.
0.09

Here is another compound to look at.
Radioactive accumulation per unit weight in brain for Fc1ccc(-c2cn3cc([123I])ccc3n2)cc1 ?
0.05

###

# Measurement Protocol: Transferability into brain and clearance (radioactive accumulation in brain after intravenous injection)
# Cond: rats, after 30 min.
Some molecules, each annotated with its measured Radioactive accumulation per unit weight in brain.
Lab book: enter the figure in % ID/g, no units written.

Could you tell me which Radioactive accumulation per unit weight in brain is on file for COc1ccc(-c2cn3cc([123I])ccc3n2)cc1 ?
0.12

Tell me the measured Radioactive accumulation per unit weight in brain of CN(C)c1ccc(-c2cn3cc([123I])ccc3n2)cc1 [[^123I]-IMPY, reference compound] , please.
0.23

What value of Radioactive accumulation per unit weight in brain has been reported for the following molecule? Fc1ccc(-c2cn3cc([123I])ccc3n2)cc1
0.12

---
I'd like to know its Radioactive accumulation per unit weight in brain. The molecule in question is COc1ccc2nc(-c3ccc([123I])cc3)cn2c1
0.19

###

# Measurement Protocol: Transferability into brain and clearance (radioactive accumulation in brain after intravenous injection)
# Cond: rats, after 5 min.
Catalogue of molecules with associated Radioactive accumulation per unit weight in brain
The reply should be a number in % ID/g, with the unit left off.

Consider the worked cases shown below.
Sample COc1ccc(-c2cn3cc([123I])ccc3n2)cc1 — what was its Radioactive accumulation per unit weight in brain?
0.72

Fill in: Radioactive accumulation per unit weight in brain of Fc1ccc(-c2cn3cc([123I])ccc3n2)cc1 is ___
0.72

Would you kindly share the measured Radioactive accumulation per unit weight in brain for CN(C)c1ccc(-c2cn3cc([123I])ccc3n2)cc1 [[^123I]-IMPY, reference compound] ?
0.97

Now examine the next entry.
Fill in the blank: the reported Radioactive accumulation per unit weight in brain of COc1ccc2nc(-c3ccc([123I])cc3)cn2c1 is ____.
0.89
